Assay Metric: pIC50
A value of pIC50 is the negative decimal logarithm of a concentration given in moles per litre.

Prompt line: Param request: pIC50 | system Human PDE7B (hPDE7B) (Homo sapiens, UniProt Q9NP56) | item `Nc1nccn2c(N3C4CCC3CC4)nnc12`
Response line: 6.44

Prompt line: Param request: pIC50 | system Human PDE7B (hPDE7B) (Homo sapiens, UniProt Q9NP56) | item Nc1ncnc2c1nnn2C1CCCC(CO)C1 (centres unmarked)
Response line: 6.59

Prompt line: Param request: pIC50 | system Human PDE7B (hPDE7B) (Homo sapiens, UniProt Q9NP56) | item `Nc1nccn2c(N3CCCCC34CC4)nnc12`
Response line: 7.10

Prompt line: Param request: pIC50 | system Human PDE7B (hPDE7B) (Homo sapiens, UniProt Q9NP56) | item Nc1nccn2c([C@@H]3[C@H]4C=CC[C@H]43)nnc12 (relative stereo)
Response line: 6.66

Prompt line: Param request: pIC50 | system Human PDE7B (hPDE7B) (Homo sapiens, UniProt Q9NP56) | item `CC(C)(C)OC(=O)N1CCC[C@H](c2nnc3c(N)nccn23)C1`
Response line: 7.22

Prompt line: Param request: pIC50 | system Human PDE7B (hPDE7B) (Homo sapiens, UniProt Q9NP56) | item CC1CCCC(c2nnc3c(N)ncnn23)C1 (single isomer, unassigned) [Example 72]
Response line: 8.00

Prompt line: Param request: pIC50 | system Human PDE7B (hPDE7B) (Homo sapiens, UniProt Q9NP56) | item CC(C)(C)OC(=O)N1CCCC(n2nnc3c(N)ncnc32)C1 (centres unmarked)
Response line: 6.40

Prompt line: Param request: pIC50 | system Human PDE7B (hPDE7B) (Homo sapiens, UniProt Q9NP56) | item CCC1CCCN(c2nnc3c(N)nccn23)C1 (centres unmarked)
Response line: 6.72

Prompt line: Param request: pIC50 | system Human PDE7B (hPDE7B) (Homo sapiens, UniProt Q9NP56) | item `Nc1nccn2c([C@@H]3CCCC(F)(F)C3)nnc12`
Response line: 6.48

Prompt line: Param request: pIC50 | system Human PDE7B (hPDE7B) (Homo sapiens, UniProt Q9NP56) | item `CC(C)(C)OC(=O)N1CCC[C@H](n2nnc3c(N)ncnc32)C1`
Response line: 6.80

Prompt line: Param request: pIC50 | system Human PDE7B (hPDE7B) (Homo sapiens, UniProt Q9NP56) | item `C[C@H]1CC[C@H](c2nnc3c(N)nccn32)CC1`
Response line: 7.40

Prompt line: Param request: pIC50 | system Human PDE7B (hPDE7B) (Homo sapiens, UniProt Q9NP56) | item `Nc1ncnc2c1nnn2-c1cccc(C(=O)NCc2ccccc2)c1`
Response line: 6.60

Prompt line: Param request: pIC50 | system Human PDE7B (hPDE7B) (Homo sapiens, UniProt Q9NP56) | item CC1CCCN(c2nnc3c(N)nccn23)C1C (single isomer, unassigned)
Response line: 7.30

Prompt line: Param request: pIC50 | system Human PDE7B (hPDE7B) (Homo sapiens, UniProt Q9NP56) | item `Nc1nc(C(F)(F)F)nc2c1nnn2C1CCCCC1`
Response line: 6.47

Prompt line: Param request: pIC50 | system Human PDE7B (hPDE7B) (Homo sapiens, UniProt Q9NP56) | item `Nc1ncnc2c1nnn2[C@H]1CCCC(F)(F)C1`
Response line: 6.80

Prompt line: Param request: pIC50 | system Human PDE7B (hPDE7B) (Homo sapiens, UniProt Q9NP56) | item `Nc1nccn2c([C@H]3[C@@H]4CCC[C@@H]43)nnc12`
Response line: 7.10

Prompt line: Param request: pIC50 | system Human PDE7B (hPDE7B) (Homo sapiens, UniProt Q9NP56) | item CC1CCCCC1c1nnc2c(N)ncnn12 (single isomer, unassigned) [Example 69]
Response line: 8.00
